Measured values drawn from ChEMBL document CHEMBL1149368 for this set.

Here's what we have: Ki numbers for 5-hydroxytryptamine receptor 2A (Homo sapiens, UniProt P28223).

Compound: COc1cc(Br)c(OC)c2c1C(CN)CC2 (racemic)
Ki: 0.053 µM
--
Compound: COc1cc(Br)c2c3c1[C@@H](CN)CCC[C@@H]3CO2 (racemic)
Ki: 0.17 µM
--
Compound: COc1cc(CCN)c(OC)cc1Br
Ki: 0.00066 µM
--
Compound: COc1cc(Br)c2c3c1[C@H](CN)CCC[C@@H]3CO2 (racemic)
Ki: 0.2 µM

----------
Target: 5-hydroxytryptamine receptor 2A (Rattus norvegicus, UniProt P14842)
Sequence (P14842 whole entry): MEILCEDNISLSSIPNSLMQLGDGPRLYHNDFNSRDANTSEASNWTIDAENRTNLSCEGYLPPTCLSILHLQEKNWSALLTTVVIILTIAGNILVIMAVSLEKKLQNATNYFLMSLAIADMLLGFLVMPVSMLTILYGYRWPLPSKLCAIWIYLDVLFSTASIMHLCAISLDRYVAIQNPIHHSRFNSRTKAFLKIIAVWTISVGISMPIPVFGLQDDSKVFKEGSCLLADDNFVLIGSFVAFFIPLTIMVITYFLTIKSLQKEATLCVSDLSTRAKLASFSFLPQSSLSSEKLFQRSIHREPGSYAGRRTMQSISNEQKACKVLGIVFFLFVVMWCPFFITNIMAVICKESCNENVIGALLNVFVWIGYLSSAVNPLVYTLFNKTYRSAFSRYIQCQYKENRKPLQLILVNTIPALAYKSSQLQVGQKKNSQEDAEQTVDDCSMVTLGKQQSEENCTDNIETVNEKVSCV
Experiment: Activity at rat 5HT2A receptor expressed in NIH3T3 cells assessed as stimulation of phospholipase C-mediated IP production
pEC50: −log10 of the molar value.

Query smiles: COc1cc(CCN)c(OC)cc1Br
pEC50: 7.57

----------
Entries with reported Ki on UniProt:P14842
Property label: Ki (nM)

Compound: COc1cc(CCN)c(OC)cc1Br
Assayed system: UniProt:P14842
Scale unit: nM
Val: 0.88
--
Compound: COc1cc(Br)c2c3c1[C@H](CN)CCC[C@@H]3CO2 (racemic)
Assayed system: UniProt:P14842
Scale unit: nM
Val: 170
--
Compound: COc1cc(Br)c2c3c1[C@@H](CN)CCC[C@@H]3CO2 (racemic)
Assayed system: UniProt:P14842
Scale unit: nM
Val: 74
--
Compound: COc1cc(Br)c(OC)c2c1C(CN)CC2 (racemic)
Assayed system: UniProt:P14842
Scale unit: nM
Val: 47
